Experiment: Cytotoxicity determination in HepG2.2.15 cells (CCK-8)
Format: cell-based
Details: human, 6 days of compound treatment, CCK-8, highest concentration 100 μM
Reported CC50 at 6 days values are given for each entry in this list.
reported property: CC50 at 6 days

molecule	reported property	value observed
CNS(=O)(=O)N1CCC(C2=C(C(=O)OC)C(c3cccc(F)c3Cl)N=C(c3nccs3)N2)CC1 (single isomer, unassigned) [Compound 115B]	CC50 at 6 days	19.1 µM
COC(=O)C1=C(C2CC3CCC(C2)N3S(C)(=O)=O)NC(c2nccs2)=NC1c1ccc(F)cc1Cl (single isomer, unassigned) [Compound 38B]	CC50 at 6 days	34.1 µM
COC(=O)C1=C(C2CCN(S(=O)(=O)C(C)(C)C(=O)O)CC2)NC(c2nccs2)=NC1c1ccc(F)cc1Cl (stereo not drawn) [Compound 7]	CC50 at 6 days	> 100 µM
CCOC(=O)C1=C(C2CCN(S(=O)(=O)[C@H]3C[C@H](C(=O)O)C3)CC2)NC(c2nccs2)=NC1c1ccc(F)cc1Cl (stereo partly drawn) [Compound 329B]	CC50 at 6 days	60 µM
COC(=O)C1=C(C2CCN(S(=O)(=O)c3cnn(CCC(C)(C)O)c3)CC2)NC(c2nccs2)=NC1c1ccc(F)cc1Cl (stereo not drawn) [Compound 458]	CC50 at 6 days	15.5 µM
COCCNS(=O)(=O)N1CCC(C2=C(C(=O)OC)C(c3ccc(F)cc3Cl)N=C(c3nccs3)N2)CC1 (single isomer, unassigned) [Compound 268B]	CC50 at 6 days	30.7 µM
